SYSTEM: Torsin-1A (Homo sapiens)
PROCEDURE SUMMARY: small-molecule binders of mutant TOR1A in lysate, primary screen, cell lysate, small-molecule microarray, COS7 lysate, 635/667 nm fluorescence (AID 1150);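 further: score pools 667 nm emission and signal to noise measuring lysate protein binding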
RUN CONDITIONS: COS7 hTOR1A mutant lysate, 635 nm fluorescence, higher = more signal
Please mark yes (1) if the recorded composite z-score is equal to or greater than 1, and no (0) if it falls below.

C=CCNC(=O)[C@H]1[C@@H]2C(=O)O[C@@H](c3ccccc3)[C@@H](c3ccccc3)N2[C@@H](c2ccccc2OCCO)[C@]12C(=O)N(C(=O)OCCOC)c1ccccc12 | no (0)

Could you tell me if the measured composite z-score of CCCC[C@@H](O)C1=C(COC)Cn2c(=O)n(-c3ccccc3)c(=O)n2[C@H]1CO reaches 1 or more? no (0)

Now the same for Cc1ccc(S(=O)(=O)N2[C@@H](c3ccccc3)C(C(=O)O)=CC[C@H]2c2ccc(C#N)cc2)cc1 yes (1)

Now the same for COCC(=C=CC[C@@H](O)c1ccc(OCCO)cc1)C[C@@H](O)COCc1ccccc1 yes (1)

----------
SYSTEM: Homeobox protein Hox-A13 (Mus musculus)
PROCEDURE SUMMARY: inhibitors of HoxA13-DNA binding, primary screen, biochemical, fluorescence polarization, labeled oligonucleotide (AID 1185)
RUN CONDITIONS: 15 min, higher = more signal, called active from +8 up or from −8 down
MEASURE NAME: z-score
Answer as a number with no unit attached.

Look over these answered cases.
CCOC(=O)C1=C(C(=O)OCC)N(S(=O)(=O)CC[Si](C)(C)C)[C@H](c2ccccc2)CC1 | -2.79
C=CCN1C(=O)[C@]2(O[C@H](CCn3cc([C@H](O)c4ccccc4)nn3)[C@@H]([Si](C)(C)c3ccc(OC)cc3)[C@@H]2C)c2cc(N3C(=O)c4cccc5cccc3c45)ccc21 | -3.64
C=CCC(OC(C)=O)[C@@H]1[C@@H](N(Cc2ccc(-c3cccc(C(F)(F)F)c3)o2)C(=O)c2cccc3ccccc23)c2cc(OCCCO)ccc2N1C(=O)c1ccc2ccccc2n1 (stereo partly specified) | -2.09
C=C(CCCC)C(=O)CC[C@H](OC(C)=O)c1ccccc1OCCO | -5.49
C#CCN=C(N)N | -0.327
CC(C)CNC(=O)[C@@H]1c2ccccc2C(=O)N(C(C)C)[C@H]1c1ccc(CO)cc1 | -0.0386
NCCCC[C@@H]1NC(=O)[C@H]2C[C@@H](C(=O)NCc3ccc(F)cc3)[C@@H](c3cccc(OCCO)c3)N2C1=O | 5.72
O=c1cccc(-c2ccccc2C(F)(F)F)o1 | -1.43

Test system Homeobox protein Hox-A13 (Mus musculus); read-out z-score; what value for CC(C)C(=C=CC[C@@H](O)c1ccccc1OCCO)C[C@@H](O)c1cc(Cl)cc(Cl)c1O ? -3.09

Now the same for CCCCN1CC=CC23O[C@@H]4C=CCOC(=O)[C@@H]4[C@H]2C(=O)N(C(CO)C(C)C)[C@@H]3C1=O (stereo partly specified) -5.09

Now the same for O=C1c2ccccc2[C@](Cc2ccccc2I)(C(=O)O)[C@H](c2ccc(CO)cc2)N1Cc1ccccc1 -4.44

Now the same for C=C(CCCC)C(=O)CC[C@H](OC(=O)c1cccnc1)c1ccc(CO)o1 -5.27

Now the same for Cc1c(-c2ccc(-c3ccc(Cl)c(Cl)c3)o2)nc(-c2ccccc2)c2c1CO[Si]2(C(C)C)C(C)C -1.48

Now the same for CN(C)CCCCNC(=O)[C@H]1C[C@H]2C(=O)NCC(=O)N2[C@H]1c1cccc(OCCO)c1 -1.62

Now the same for C/C=C/CN(C(=O)C#Cc1ccccc1)[C@H](CO[Si](C)(C)C(C)(C)C)c1ccccc1 1.99
